Hey, just so you know, these numbers are from patent US20260092071A1.

# DC50 per record follows
- target_desc: SMARCA4 (Homo sapiens)
- assay_overview: HiBit assay in engineered HT1080 CRISPR knock-in cell, 6 hrs (B series), SMARCA4
- Format: cell-based
- run_parameters: HT1080 CRISPR knock-in cells, 6 hrs incubation; read-out: SMARC A4 HT1080 HiBit DC50

Some solved cases for reference:
Cc1cc(C(C(=O)N2C[C@H](O)C[C@H]2C(=O)N[C@@H](CCN2CCC(c3cccc4c3C(C)(C)c3nc(=O)c5c(Cl)cccc5n3-4)CC2)c2ccc(-c3scnc3C)cc2)C(C)C)on1 (stereo partly drawn) [Compound B166]
100 to 500 nM
CC(=O)c1ccc([C@H](C)NC(=O)[C@@H]2C[C@@H](O)CN2C(=O)[C@H](C(C)C)n2cc([C@H]3CC[C@H](CN4CCC(c5ccc6c(c5)-n5c(nc(=O)c7c(Cl)cccc75)C6(C)C)CC4)CC3)nn2)cc1
< 100 nM

SMARCA4 (Homo sapiens) / DC50 / Cc1ncsc1-c1ccc([C@H](CN2CCOCC2)NC(=O)[C@@H]2C[C@@H](O)CN2C(=O)[C@@H](c2cc(N3CCC(c4ccc5c(c4)C(C)(C)c4nc(=O)c6c(Cl)cccc6n4-5)CC3)no2)C(C)C)cc1 : value?
< 100 nM

====

- target_desc: SMARCA4 (Homo sapiens, UniProt P51532)
- Sequence (P51532 whole entry): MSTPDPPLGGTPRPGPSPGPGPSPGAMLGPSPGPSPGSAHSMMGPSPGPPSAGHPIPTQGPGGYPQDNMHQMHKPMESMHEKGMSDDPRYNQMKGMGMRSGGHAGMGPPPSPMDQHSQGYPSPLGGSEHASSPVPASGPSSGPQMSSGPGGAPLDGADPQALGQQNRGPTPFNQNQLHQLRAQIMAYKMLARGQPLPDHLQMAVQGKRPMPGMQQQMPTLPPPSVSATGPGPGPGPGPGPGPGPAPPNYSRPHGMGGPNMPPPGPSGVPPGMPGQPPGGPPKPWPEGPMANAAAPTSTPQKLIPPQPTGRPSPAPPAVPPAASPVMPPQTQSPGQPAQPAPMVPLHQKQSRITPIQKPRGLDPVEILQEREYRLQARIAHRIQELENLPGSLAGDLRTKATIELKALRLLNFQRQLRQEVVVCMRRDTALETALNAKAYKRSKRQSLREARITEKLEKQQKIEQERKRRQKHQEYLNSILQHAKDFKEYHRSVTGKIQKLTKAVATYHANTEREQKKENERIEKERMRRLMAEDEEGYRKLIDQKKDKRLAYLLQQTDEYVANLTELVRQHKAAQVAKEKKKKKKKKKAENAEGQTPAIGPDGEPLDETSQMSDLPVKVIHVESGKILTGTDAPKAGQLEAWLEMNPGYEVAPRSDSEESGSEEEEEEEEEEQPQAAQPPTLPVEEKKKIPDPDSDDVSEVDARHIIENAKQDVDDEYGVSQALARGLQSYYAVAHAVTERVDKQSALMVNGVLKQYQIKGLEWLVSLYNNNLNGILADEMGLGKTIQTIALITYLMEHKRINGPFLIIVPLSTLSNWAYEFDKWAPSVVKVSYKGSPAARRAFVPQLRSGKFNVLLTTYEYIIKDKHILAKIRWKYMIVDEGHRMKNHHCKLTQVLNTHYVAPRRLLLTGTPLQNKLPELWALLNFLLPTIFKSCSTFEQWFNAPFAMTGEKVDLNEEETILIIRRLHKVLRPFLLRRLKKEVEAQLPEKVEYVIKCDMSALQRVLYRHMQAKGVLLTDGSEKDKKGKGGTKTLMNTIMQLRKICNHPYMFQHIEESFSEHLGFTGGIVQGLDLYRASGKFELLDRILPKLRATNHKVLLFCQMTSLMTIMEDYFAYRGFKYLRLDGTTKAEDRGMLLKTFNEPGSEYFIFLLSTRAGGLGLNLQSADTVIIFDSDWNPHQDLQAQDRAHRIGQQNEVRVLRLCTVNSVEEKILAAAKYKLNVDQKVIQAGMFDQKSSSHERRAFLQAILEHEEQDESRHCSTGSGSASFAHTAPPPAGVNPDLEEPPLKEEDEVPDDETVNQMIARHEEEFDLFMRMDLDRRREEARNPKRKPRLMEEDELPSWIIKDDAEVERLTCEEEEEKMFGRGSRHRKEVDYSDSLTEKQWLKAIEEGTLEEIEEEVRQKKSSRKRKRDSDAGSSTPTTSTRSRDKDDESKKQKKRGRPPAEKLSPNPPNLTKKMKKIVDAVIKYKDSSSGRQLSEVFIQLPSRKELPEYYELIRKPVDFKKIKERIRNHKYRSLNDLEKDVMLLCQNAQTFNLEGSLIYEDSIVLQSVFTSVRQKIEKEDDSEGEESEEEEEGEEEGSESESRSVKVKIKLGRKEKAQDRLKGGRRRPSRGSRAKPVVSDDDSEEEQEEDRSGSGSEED
- assay_overview: HiBiT assay for protein degradation, Hela SMARCA4-HiBiT cells (A series)
- Type: cell-based
- Set-up: fuse HiBiT to the carboxy terminus of SMARCA2 (Promega CS302365) or SMARCA4 (Promega CS3023225); host or cells: HeLa (CRISPR/Cas9 HiBiT knock-in)
- run_parameters: read-out: SMARC A4 Hela HiBit DC50
- Method: Hela cells were genetically modified via CRISPR/Cas9 to fuse HiBiT to the carboxy terminus of SMARCA2 (Promega CS302365) or SMARCA4 (Promega CS3023225). Cells were cultured in DMEM containing 10% FBS and 1% (Vol:Vol) penicillin-streptomycin. […] At the end of experiment, levels of SMARCA2 or SMARCA4 expression were assessed with Nano-Glo® HiBiT Lytic Detection Assay (Promega N3050). IC50 was obtained using the GraphPad Prism data analysis software.
measurement_label: DC50

Please review the following examples before continuing.
Cc1ncsc1-c1ccc([C@H](C)NC(=O)[C@@H]2C[C@@H](O)CN2C(=O)[C@@H](n2cc(CCCCN3CCC(c4ccc5c(c4)-n4c(nc(=O)c6c(Br)cccc64)C54CCCCC4)CC3)nn2)C(C)(C)C)cc1
< 100 nM
Cc1ncsc1-c1ccc([C@H](C)NC(=O)[C@@H]2C[C@@H](O)CN2C(=O)[C@@H](n2cc([C@H]3C[C@H](CN4CCC(c5ccc6c(c5)-n5c(nc(=O)c7c(Br)cccc75)C65CCCCC5)CC4)C3)nn2)C(C)(C)C)cc1
< 100 nM
Cc1ncsc1-c1ccc([C@H](CCCCCN2CCC(c3ccc4c(c3)C3(CCCCC3)c3nc(=O)c5c(Br)cccc5n3-4)CC2)NC(=O)[C@@H]2C[C@@H](O)CN2C(=O)[C@@H](NC(=O)C2(CN(C)C)CC2)C(C)(C)C)cc1
< 100 nM
Cc1ncsc1-c1ccc([C@H](C)NC(=O)[C@@H]2C[C@@H](O)CN2C(=O)[C@@H](n2cc(C3(CN4CCC(c5ccc6c(c5)-n5c(nc(=O)c7c(Br)cccc75)C65CCCCC5)CC4)CC3)nn2)C(C)(C)C)cc1
100 to 500 nM
Cc1ncsc1-c1ccc([C@H](C)NC(=O)[C@@H]2C[C@@H](O)CN2C(=O)[C@@H](n2cc(-c3ccc(CN4CCC(c5ccc6c(c5)-n5c(nc(=O)c7c(Br)cccc75)C65CCCCC5)CC4)nc3)nn2)C(C)(C)C)cc1
> 1000 nM
Cc1ncsc1-c1ccc([C@H](CN2CCOCC2)NC(=O)[C@@H]2C[C@@H](O)CN2C(=O)[C@@H](NC(=O)C2CC(CN3CCC(c4ccc5c(c4)C4(CCCCC4)c4nc(=O)c6c(Br)cccc6n4-5)CC3)C2)C(C)(C)C)cc1 (stereo partly shown)
100 to 500 nM

Now for the molecule whose DC50 we want.
Query (molecule): Cc1ncsc1-c1ccc([C@H](CN2CCOCC2)NC(=O)[C@@H]2C[C@@H](O)CN2C(=O)[C@@H](NC(=O)C23CCC(CN4CCC(c5ccc6c(c5)C5(CCCCC5)c5nc(=O)c7c(Br)cccc7n5-6)CC4)(CC2)C3)C(C)(C)C)cc1 ; field requested: DC50
< 100 nM
